- experimental.target: T1, IGF1R-Fc (extracellular domain of human IGF1R aa 1-932 fused to hinge and constant regions of human IgG1) (human, UniProt P08069 31-932)
- T1 construct: range 1-932; made in house by transient transfection, purified on Protein A; also called IGF-IR-Fc; not shown: hinge and constant regions of human IgG1
- assay.text: SPR Biacore
endpoint: pKd
Lab note: report pKd as minus log10 of the concentration in molar units, number only.

As a guide, the following entries are already answered.
I1-GS10-E5 pegylated without the 6HIS tag (designed binder, PEG on the Cys of the C-terminal Cys tail, Whether the D-to-E change in the tail of the first monomer applies to this construct is not clear; also called I1-GS10-E5 pegylated(1)) MGVSDVPRDLEVVAATPTSLLISWSARLKVARYYRITYGETGGNSPVQEFTVPKNVYTATISGLKPGVDYTITVYAVTRFRDYQPISINYRTEIDKGSGSGSGSGSGSGSGSGSGSVSDVPRDLEVVAATPTSLLISWWAPVDRYQYYRITYGETGGNSPVQEFTVPRDVYTATISGLKPGVDYTITVYAVTDYKPHADGPHTYHESPISINYRTEIDKPCQ: 9.64
I1(S91C)-GS10-E5 pegylated (designed binder, PEG on Cys at position 91 of I1 (position of SEQ ID NO: 1), also called I1(S91C)-GS10-E5(7)) MGVSDVPRDLEVVAATPTSLLISWSARLKVARYYRITYGETGGNSPVQEFTVPKNVYTATISGLKPGVDYTITVYAVTRFRDYQPICINYRTEIEKGSGSGSGSGSGSGSGSGSGSVSDVPRDLEVVAATPTSLLISWWAPVDRYQYYRITYGETGGNSPVQEFTVPRDVYTATISGLKPGVDYTITVYAVTDYKPHADGPHTYHESPISINYRTEHHHHHH: 8.15

# return recorded pKd for entry I1-GS10-E5-GSGC pegylated (designed binder, PEG on the Cys of the GSGC tail of E5, alternative clone of I1-GS10-E5 pegylated; also called I1-GS10-E5-GSGC(4)) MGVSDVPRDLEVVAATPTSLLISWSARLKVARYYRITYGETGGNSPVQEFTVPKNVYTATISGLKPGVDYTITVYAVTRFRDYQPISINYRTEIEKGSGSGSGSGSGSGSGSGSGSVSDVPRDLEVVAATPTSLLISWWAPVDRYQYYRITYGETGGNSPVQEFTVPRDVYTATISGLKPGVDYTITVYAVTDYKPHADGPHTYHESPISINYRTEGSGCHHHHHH
9.60

Data origin, for the record: patent US20180037631A1
